# target_system: hsst3 (Homo sapiens)
# Sequence (P32745 whole entry): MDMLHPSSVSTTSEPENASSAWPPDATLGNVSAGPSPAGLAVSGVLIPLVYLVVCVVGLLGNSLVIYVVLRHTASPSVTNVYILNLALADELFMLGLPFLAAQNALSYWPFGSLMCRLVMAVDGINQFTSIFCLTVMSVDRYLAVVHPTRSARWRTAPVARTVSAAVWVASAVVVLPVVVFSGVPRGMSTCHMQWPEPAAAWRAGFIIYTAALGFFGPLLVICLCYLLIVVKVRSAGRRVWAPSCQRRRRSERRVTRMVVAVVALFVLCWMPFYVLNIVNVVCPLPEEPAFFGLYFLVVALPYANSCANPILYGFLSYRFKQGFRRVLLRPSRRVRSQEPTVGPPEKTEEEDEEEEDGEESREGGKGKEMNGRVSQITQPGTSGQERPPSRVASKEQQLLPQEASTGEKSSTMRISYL
Where a SMILES comes first, the peptide text is derived from it. Bridges are numbered along the chain shown (N, C = ends). [ ]: non-standard residue; d: D form. Phe(4-Cl) = N[C@@H](Cc1ccc(Cl)cc1)C(=O)O; dNMeW = CN[C@H](Cc1c[nH]c2ccccc12)C(=O)O; Dip = N[C@H](C(=O)O)C(c1ccccc1)c1ccccc1; 2Nal = N[C@@H](Cc1ccc2ccccc2c1)C(=O)O; 3Pal = N[C@@H](Cc1cccnc1)C(=O)O; dNMeC = CN[C@H](CS)C(=O)O
Ki values for the compounds below.
Enter the number, and then the unit.

Examples with their reported Ki follow.
{"compound": "CNC(=O)[C@@H](NC(=O)[C@@H]1CSSC[C@@H](N(C)C(=O)[C@@H](N)Cc2ccc(Cl)cc2)C(=O)N[C@@H](Cc2cccnc2)C(=O)N[C@H](Cc2c[nH]c3ccccc23)C(=O)N[C@@H](CCCCN)C(=O)N[C@@H]([C@@H](C)O)C(=O)N1)C(c1ccccc1)c1ccccc1 [Peptide 10] (H-[Phe(4-Cl)][dNMeC][3Pal][dW]KTC[Dip]-NHMe; disulfide 2-7)", "result": "584 nM"}
{"compound": "C[C@@H](O)[C@@H]1NC(=O)[C@H](CCCCN)NC(=O)[C@@H](Cc2c[nH]c3ccccc23)N(C)C(=O)[C@H](Cc2cccnc2)NC(=O)[C@H](NC(=O)[C@@H](N)Cc2ccc(Cl)cc2)CSSC[C@@H](C(=O)N[C@@H](Cc2ccc3ccccc3c2)C(N)=O)NC1=O [Peptide 4] (H-[Phe(4-Cl)][dC][3Pal][dNMeW]KTC[2Nal]-NH2; disulfide 2-7)", "result": "390 nM"}

// next entry
q: Could you share what Ki was measured for CN[C@@H](Cc1ccc(Cl)cc1)C(=O)N[C@@H]1CSSC[C@@H](C(=O)N[C@@H](Cc2ccc3ccccc3c2)C(N)=O)NC(=O)[C@H]([C@@H](C)O)NC(=O)[C@H](CCCCN)NC(=O)[C@@H](Cc2c[nH]c3ccccc23)NC(=O)[C@H](Cc2cccnc2)NC1=O [Peptide 1] , tested on hsst3 (Homo sapiens)?
a: 330 nM

###

Where a SMILES comes first, the peptide text is derived from it. Bridges are numbered along the chain shown (N, C = ends). [ ]: non-standard residue; d: D form. Phe(4-Cl) = N[C@@H](Cc1ccc(Cl)cc1)C(=O)O; Dip = N[C@H](C(=O)O)C(c1ccccc1)c1ccccc1; 2Nal = N[C@@H](Cc1ccc2ccccc2c1)C(=O)O; 3Pal = N[C@@H](Cc1cccnc1)C(=O)O; NMeK = CN[C@@H](CCCCN)C(=O)O; dNMeC = CN[C@H](CS)C(=O)O
Below are compounds with their Ki as measured on UniProt:P30872.
Sequence (P30872 whole entry): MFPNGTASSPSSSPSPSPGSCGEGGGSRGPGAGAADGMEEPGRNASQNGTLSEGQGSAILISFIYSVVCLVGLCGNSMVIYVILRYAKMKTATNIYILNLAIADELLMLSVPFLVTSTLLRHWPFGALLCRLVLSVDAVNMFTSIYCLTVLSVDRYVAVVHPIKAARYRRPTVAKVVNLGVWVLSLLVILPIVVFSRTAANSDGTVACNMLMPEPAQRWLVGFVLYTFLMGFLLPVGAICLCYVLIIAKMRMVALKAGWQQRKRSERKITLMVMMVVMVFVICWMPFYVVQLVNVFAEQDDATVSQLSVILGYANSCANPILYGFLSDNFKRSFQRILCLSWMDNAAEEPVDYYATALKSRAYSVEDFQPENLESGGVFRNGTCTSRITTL
Field: numeric (nM). Do not append units.

q: Would you mind telling me what Ki value was observed for CN[C@@H](Cc1ccc(Cl)cc1)C(=O)N[C@@H]1CSSC[C@@H](C(=O)N[C@@H](Cc2ccc3ccccc3c2)C(N)=O)NC(=O)[C@H]([C@@H](C)O)NC(=O)[C@H](CCCCN)NC(=O)[C@@H](Cc2c[nH]c3ccccc23)NC(=O)[C@H](Cc2cccnc2)NC1=O [Peptide 1] ?
a: 1000

q: Would you mind telling me what Ki value was observed for C[C@@H](O)[C@@H]1NC(=O)[C@H](CCCCN)N(C)C(=O)[C@@H](Cc2c[nH]c3ccccc23)NC(=O)[C@H](Cc2ccc(O)cc2)NC(=O)[C@H](NC(=O)[C@@H](N)Cc2ccc(Cl)cc2)CSSC[C@@H](C(=O)N[C@@H](Cc2ccc3ccccc3c2)C(N)=O)NC1=O [Peptide 12] (H-[Phe(4-Cl)][dC]Y[dW][NMeK]TC[2Nal]-NH2; disulfide 2-7) ?
a: 1000

q: Would you mind telling me what Ki value was observed for CNC(=O)[C@@H](NC(=O)[C@@H]1CSSC[C@@H](N(C)C(=O)[C@@H](N)Cc2ccc(Cl)cc2)C(=O)N[C@@H](Cc2cccnc2)C(=O)N[C@H](Cc2c[nH]c3ccccc23)C(=O)N[C@@H](CCCCN)C(=O)N[C@@H]([C@@H](C)O)C(=O)N1)C(c1ccccc1)c1ccccc1 [Peptide 10] (H-[Phe(4-Cl)][dNMeC][3Pal][dW]KTC[Dip]-NHMe; disulfide 2-7) ?
a: 1000

###

Below are compounds with their pKi as measured on hsst3 (Homo sapiens).
Where a SMILES comes first, the peptide text is derived from it. Bridges are numbered along the chain shown (N, C = ends). [ ]: non-standard residue; d: D form. Phe(4-Cl) = N[C@@H](Cc1ccc(Cl)cc1)C(=O)O; dNMeW = CN[C@H](Cc1c[nH]c2ccccc12)C(=O)O; 2Nal = N[C@@H](Cc1ccc2ccccc2c1)C(=O)O; 3Pal = N[C@@H](Cc1cccnc1)C(=O)O; NMeK = CN[C@@H](CCCCN)C(=O)O
// scale note: pKi = -log10(conc_M); give the bare number

Examples with their reported pKi follow.
{"compound": "C[C@@H](O)[C@@H]1NC(=O)[C@H](CCCCN)N(C)C(=O)[C@@H](Cc2c[nH]c3ccccc23)N(C)C(=O)[C@H](Cc2cccnc2)NC(=O)[C@H](NC(=O)[C@@H](N)Cc2ccc(Cl)cc2)CSSC[C@@H](C(=O)N[C@@H](Cc2ccc3ccccc3c2)C(N)=O)NC1=O [Peptide 11] (H-[Phe(4-Cl)][dC][3Pal][dNMeW][NMeK]TC[2Nal]-NH2; disulfide 2-7)", "pKi": 6.85}
{"compound": "C[C@@H](O)[C@@H]1NC(=O)[C@H](CCCCN)NC(=O)[C@@H](Cc2c[nH]c3ccccc23)NC(=O)[C@H](Cc2cccnc2)N(C)C(=O)[C@H](NC(=O)[C@@H](N)Cc2ccc(Cl)cc2)CSSC[C@@H](C(=O)N[C@@H](Cc2ccc3ccccc3c2)C(N)=O)NC1=O [Peptide 3]", "pKi": 6.35}

// next entry
q: Could you share what pKi was measured for C[C@@H](O)[C@@H]1NC(=O)[C@H](CCCCN)NC(=O)[C@@H](Cc2c[nH]c3ccccc23)NC(=O)[C@H](Cc2cccnc2)NC(=O)[C@H](NC(=O)[C@@H](N)Cc2ccc(Cl)cc2)CSSC[C@@H](C(=O)N[C@@H](Cc2ccc3ccccc3c2)C(N)=O)NC1=O [Peptide 9] , tested on hsst3 (Homo sapiens)?
a: 7.42
